Sourced from patent US12534534

Provide the recorded EC50 (nM), mIL-2 release, DO11.10-hCD137 T cell assay, crosslinked (mean of n = 2) for the entries that follow.
Biological target: human CD137 on DO11.10-hCD137 cells (human, UniProt Q07011 24-255)
Sequence (Q07011 24-255): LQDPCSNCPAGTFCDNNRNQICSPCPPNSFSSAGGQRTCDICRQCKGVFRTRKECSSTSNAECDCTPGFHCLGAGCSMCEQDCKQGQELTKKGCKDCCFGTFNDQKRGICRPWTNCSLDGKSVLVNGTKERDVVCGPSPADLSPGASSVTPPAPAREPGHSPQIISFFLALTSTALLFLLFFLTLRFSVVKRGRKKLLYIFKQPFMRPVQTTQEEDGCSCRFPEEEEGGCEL
Assay: cell-based or functional assay
Numbers only, in nM.

Previously resolved entries follow.
[[record]]
binder = "FS20-22-49AA/FS30-10-16 (bispecific antibody, human IgG1, kappa, L234A L235A, V domains shown, M97 (Kabat) to L against FS30-10; also called FS30-10-16 in mAb^2 format) VH: EVQLLESGGGLVQPGGSLRLSCAASGFTFSSYDMSWVRQAPGKGLEWVSDIDPTGSKTDYADSVKGRFTISRDNSKNTLYLQMNSLRAEDTAVYYCARDLLVYGFDYWGQGTLVTVSS VL: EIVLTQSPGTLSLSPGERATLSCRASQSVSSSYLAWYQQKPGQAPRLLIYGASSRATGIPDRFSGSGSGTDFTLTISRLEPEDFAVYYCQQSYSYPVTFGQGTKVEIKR"
testresult = 4.7

[[record]]
binder = "FS20-22-49AA/FS30-10-3 (bispecific antibody, human IgG1, kappa, L234A L235A, V domains shown, M97 (Kabat) to N against FS30-10; also called FS30-10-3 in mAb^2 format) VH: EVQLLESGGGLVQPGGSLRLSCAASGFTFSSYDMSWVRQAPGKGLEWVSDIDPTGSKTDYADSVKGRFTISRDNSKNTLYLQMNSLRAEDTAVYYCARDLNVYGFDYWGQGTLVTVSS VL: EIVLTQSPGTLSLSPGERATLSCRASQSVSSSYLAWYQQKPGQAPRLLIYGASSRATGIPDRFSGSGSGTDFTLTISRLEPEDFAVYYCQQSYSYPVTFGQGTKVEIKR"
testresult = 6.1

[[record]]
binder = "FS20-22-49AA/FS30-10-12 (bispecific antibody, human IgG1, kappa, L234A L235A, V domains shown, M97 (Kabat) to T against FS30-10; also called FS30-10-12 in mAb^2 format) VH: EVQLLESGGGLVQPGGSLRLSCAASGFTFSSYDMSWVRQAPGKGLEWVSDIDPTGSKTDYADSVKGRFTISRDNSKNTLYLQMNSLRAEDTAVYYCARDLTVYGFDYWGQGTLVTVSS VL: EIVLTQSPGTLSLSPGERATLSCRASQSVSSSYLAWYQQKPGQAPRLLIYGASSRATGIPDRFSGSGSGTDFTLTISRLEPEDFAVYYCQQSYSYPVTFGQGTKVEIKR"
testresult = 9.5

[[record]]
binder = "FS20-22-49AA/FS30-5-37 (bispecific antibody, human IgG1, kappa, L234A L235A, V domains shown, M100D to I and M100H to L against FS30-5; also called FS30-5-37 in mAb^2 format) VH: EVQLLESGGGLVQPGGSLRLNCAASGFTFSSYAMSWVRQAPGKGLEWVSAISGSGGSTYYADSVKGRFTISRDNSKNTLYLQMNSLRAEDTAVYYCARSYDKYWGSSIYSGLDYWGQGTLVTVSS VL: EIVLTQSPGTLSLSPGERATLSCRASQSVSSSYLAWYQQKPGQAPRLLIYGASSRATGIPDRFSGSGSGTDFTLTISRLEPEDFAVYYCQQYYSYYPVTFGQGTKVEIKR"
testresult = 13.4


In the following, a different binder is considered.
Query: Provide EC50 (nM), mIL-2 release, DO11.10-hCD137 T cell assay, crosslinked (mean of n = 2) value for the following binder: FS20-22-49AA/FS30-35-14 (bispecific antibody, human IgG1, kappa, L234A L235A, V domains shown, M100F (Kabat) to A against FS30-35; also called FS30-35-14 in mAb^2 format) VH: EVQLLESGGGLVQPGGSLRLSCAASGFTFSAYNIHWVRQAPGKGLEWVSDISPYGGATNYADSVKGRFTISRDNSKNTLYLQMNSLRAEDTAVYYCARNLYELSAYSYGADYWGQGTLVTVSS VL: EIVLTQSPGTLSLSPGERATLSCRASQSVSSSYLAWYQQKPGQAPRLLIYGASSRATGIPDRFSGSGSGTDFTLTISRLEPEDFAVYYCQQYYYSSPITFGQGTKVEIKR
Response: 5.1
